# tested on: STAT3 (Homo sapiens)
# Construct: This cell line is a clone created by using CRISPR-Cas9 to fuse HiBiT to the 3′ end of STAT3 in HeLa cells; host or cells: STAT3-HiBiT KI HeLa cell line (CRISPR-Cas9 knock-in clone)
# assay comment: HiBiT assay, STAT3 degradation in STAT3-HiBiT KI HeLa cells
# Format: cell-based
# condition label: 24 h, read-out: STAT3 Degradation (HeLa 24 h HiBit) DC50
Record form. Attribute: DC50. Fill in for each entry.

molecule: CC(=O)N1CC[C@H]2CC[C@@H](C(=O)N[C@@H](CCC(N)=O)COc3cccc(CCCc4cn([C@H](C(=O)N5C[C@H](O)C[C@H]5C(=O)N[C@@H](C)c5ccc(-c6scnc6C)cc5)C5CCCCC5)nn4)c3Cl)N2C(=O)[C@@H](NC(=O)c2cc3cc(C(=O)P(=O)(O)O)ccc3[nH]2)C1 [Compound 19]
tested on: STAT3 (Homo sapiens)
DC50: < 10 nM

Now consider a different molecule.
Any idea what DC50 was measured for CC(=O)N1CC[C@H]2CC[C@@H](C(=O)N[C@@H](CCC(N)=O)COc3cccc(CCCCNC(=O)C[C@H](NC(=O)[C@@H]4C[C@@H](O)CN4C(=O)[C@H](C4CCCCC4)n4cc(C5CC5)nn4)c4ccc(-c5scnc5C)cc4)c3Cl)N2C(=O)[C@@H](NC(=O)c2cc3cc(C(=O)P(=O)(O)O)ccc3[nH]2)C1 [Compound 36] ?
< 10 nM

* * *

# tested on: STAT3 (Homo sapiens, UniProt P40763)
# Construct: This cell line is a clone created by using CRISPR-Cas9 to fuse HiBiT to the 3′ end of STAT3 in HeLa cells; host or cells: STAT3-HiBiT KI HeLa cell line (CRISPR-Cas9 knock-in clone)
# Sequence (P40763 whole entry): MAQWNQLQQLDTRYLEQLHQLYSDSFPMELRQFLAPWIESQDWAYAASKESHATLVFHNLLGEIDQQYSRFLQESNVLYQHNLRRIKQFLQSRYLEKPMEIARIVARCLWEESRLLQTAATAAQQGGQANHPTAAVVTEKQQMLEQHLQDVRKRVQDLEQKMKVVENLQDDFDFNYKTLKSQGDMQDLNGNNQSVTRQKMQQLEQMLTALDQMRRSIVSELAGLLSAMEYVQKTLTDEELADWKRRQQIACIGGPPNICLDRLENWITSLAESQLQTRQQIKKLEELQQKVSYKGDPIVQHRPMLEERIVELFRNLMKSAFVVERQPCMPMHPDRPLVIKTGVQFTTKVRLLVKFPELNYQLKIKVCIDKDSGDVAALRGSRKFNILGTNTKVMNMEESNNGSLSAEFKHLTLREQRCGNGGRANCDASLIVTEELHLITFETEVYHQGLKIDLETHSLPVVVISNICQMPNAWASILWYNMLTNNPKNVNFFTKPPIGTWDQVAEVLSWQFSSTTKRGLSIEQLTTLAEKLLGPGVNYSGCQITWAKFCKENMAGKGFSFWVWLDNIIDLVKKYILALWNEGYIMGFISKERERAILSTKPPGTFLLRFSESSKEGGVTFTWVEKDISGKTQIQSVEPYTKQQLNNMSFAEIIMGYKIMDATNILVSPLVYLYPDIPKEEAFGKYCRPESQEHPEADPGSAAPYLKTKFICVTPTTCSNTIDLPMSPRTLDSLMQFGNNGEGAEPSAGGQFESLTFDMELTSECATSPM
# assay comment: HiBiT assay, STAT3 degradation in STAT3-HiBiT KI HeLa cells
# Format: cell-based
# condition label: 24 h, @1 μM
measure: Dmax at 1 µM

smiles string: Cc1ncsc1-c1ccc([C@H](C)NC(=O)[C@@H]2C[C@@H](O)CN2C(=O)[C@@H](n2cc(CCCC(=O)N3CC[C@H]4CC[C@@H](C(=O)N[C@@H](CCC(N)=O)C(=O)NCc5cccc(Cl)c5)N4C(=O)[C@@H](NC(=O)c4cc5cc(C(=O)P(=O)(O)O)ccc5[nH]4)C3)nn2)C(C)(C)C)cc1
result: > 80%

Moving on to the next molecule.
Could you share what Dmax at 1 µM was measured for CCS(=O)(=O)c1ccc(CNC(=O)[C@H](CCC(N)=O)NC(=O)[C@@H]2CC[C@@H]3CCN(C(=O)CCCCCc4cn([C@@H](C(=O)N5C[C@@H](O)C[C@@H]5C(=O)N[C@@H](C)c5ccc(-c6scnc6C)cc5)C5CCCCC5)nn4)C[C@H](NC(=O)c4cc5cc(C(=O)P(=O)(O)O)ccc5[nH]4)C(=O)N32)cc1 , tested on STAT3 (Homo sapiens, UniProt P40763)?
> 80%

* * *

# Test system: SU-DHL-1 cells
# assay comment: CellTiter-Glo 2.0 cell viability assay, SU-DHL-1
# Type: cell-based
# condition label: Homo sapiens, 96 h, 4 days
Assign IC50 to each entry below.

smiles string: Cc1ncsc1-c1ccc([C@H](C)NC(=O)[C@@H]2C[C@@H](O)CN2C(=O)[C@@H](NC(=O)CCCCCCC(=O)N2CC[C@H]3CC[C@@H](C(=O)N[C@@H](CCC(N)=O)C(=O)NC(c4ccccc4)c4ccccc4)N3C(=O)[C@@H](NC(=O)c3cc4cc(C(=O)P(=O)(O)O)ccc4[nH]3)C2)C(C)(C)C)cc1
IC50: 100 to 1000 nM

Hi! Can you tell me IC50 for each of these compounds?
1. Cc1ncsc1-c1ccc([C@H](C)NC(=O)[C@@H]2C[C@@H](O)CN2C(=O)[C@@H](n2cc(CCC(=O)N3CC[C@H]4CC[C@@H](C(=O)N[C@@H](CCC(N)=O)C(=O)NC(c5ccccc5)c5ccccc5)N4C(=O)[C@@H](NC(=O)c4cc5cc(C(=O)P(=O)(O)O)ccc5[nH]4)C3)nn2)C(C)(C)C)cc1
2. Cc1ncsc1-c1ccc([C@H](C)NC(=O)[C@@H]2C[C@@H](O)CN2C(=O)[C@@H](NC(=O)CCCCC(=O)N2CC[C@H]3CC[C@@H](C(=O)N[C@@H](CCC(N)=O)C(=O)NC(c4ccccc4)c4ccccc4)N3C(=O)[C@@H](NC(=O)c3cc4cc(C(=O)P(=O)(O)O)ccc4[nH]3)C2)C(C)(C)C)cc1
3. Cc1ncsc1-c1ccc([C@H](C)NC(=O)[C@@H]2C[C@@H](O)CN2C(=O)[C@@H](n2cc(CCCC(=O)N3CC[C@H]4CC[C@@H](C(=O)N[C@@H](CCC(N)=O)C(=O)NC(c5ccccc5)c5ccccc5)N4C(=O)[C@@H](NC(=O)c4cc5cc(C(=O)P(=O)(O)O)ccc5[nH]4)C3)nn2)C(C)(C)C)cc1
4. CC(=O)N1CC[C@H]2CC[C@@H](C(=O)N[C@@H](CCC(N)=O)COc3cccc(CCCC(=O)N4CCC([C@@H](C(=O)N5C[C@H](O)C[C@H]5C(=O)N[C@@H](C)c5ccc(-c6scnc6C)cc5)n5cc(C6CC6)nn5)CC4)c3Cl)N2C(=O)[C@@H](NC(=O)c2cc3cc(C(=O)P(=O)(O)O)ccc3[nH]2)C1
5. Cc1ncsc1-c1ccc([C@H](C)NC(=O)[C@@H]2C[C@@H](O)CN2C(=O)[C@@H](NC(=O)CCCC(=O)N2CC[C@H]3CC[C@@H](C(=O)N[C@@H](CCC(N)=O)C(=O)NC(c4ccccc4)c4ccccc4)N3C(=O)[C@@H](NC(=O)c3cc4cc(C(=O)P(=O)(O)O)ccc4[nH]3)C2)C(C)(C)C)cc1

1: > 1000 nM; 2: 10 to 100 nM; 3: 100 to 1000 nM; 4: > 1000 nM; 5: 10 to 100 nM

* * *

# Test system: SU-DHL-1 cells
# assay comment: CellTiter-Glo 2.0 cell viability assay, SU-DHL-1
# Assay type: cell-based
# condition label: Homo sapiens, 96 h, 4 days
measure: IC50

smiles string: Cc1ncsc1-c1ccc([C@H](C)NC(=O)[C@@H]2C[C@@H](O)CN2C(=O)[C@@H](n2cc(CCCc3cccc(OC[C@H](CCC(N)=O)NC(=O)[C@@H]4CC[C@@H]5CCN(C(=O)C(C)C)C[C@H](NC(=O)c6cc7cc(C(=O)P(=O)(O)O)ccc7[nH]6)C(=O)N54)c3Cl)nn2)C(C)(C)C)cc1
IC50: < 10 nM

API: the following record is the query input.
// IC50 lookup, key: Cc1ncsc1-c1ccc([C@H](C)NC(=O)[C@@H]2C[C@@H](O)CN2C(=O)[C@@H](n2cc(CCCCC(=O)N3CC[C@H]4CC[C@@H](C(=O)N[C@@H](CCC(N)=O)C(=O)NC(c5ccccc5)c5ccccc5)N4C(=O)[C@@H](NC(=O)c4cc5cc(C(=O)P(=O)(O)O)ccc5[nH]4)C3)nn2)C(C)(C)C)cc1
100 to 1000 nM

* * *

# System: SU-DHL-1 cells
# assay comment: CellTiter-Glo 2.0 cell viability assay, SU-DHL-1
# Format: cell-based
# condition label: Homo sapiens, 96 h, 4 days
Kindly state IC50 for each of the entries shown.

Sample records with IC50:
compound: Cc1ncsc1-c1ccc([C@H](C)NC(=O)[C@@H]2C[C@@H](O)CN2C(=O)[C@@H](NC(=O)CCCCCC(=O)N2CC[C@H]3CC[C@@H](C(=O)N[C@@H](CCC(N)=O)C(=O)NC(c4ccccc4)c4ccccc4)N3C(=O)[C@@H](NC(=O)c3cc4cc(C(=O)P(=O)(O)O)ccc4[nH]3)C2)C(C)(C)C)cc1 [Compound 50]
result: 10 to 100 nM
//
compound: CCS(=O)(=O)c1ccc(CNC(=O)[C@H](CCC(N)=O)NC(=O)[C@@H]2CC[C@@H]3CCN(C(=O)CCCCc4cn([C@H](C(=O)N5C[C@H](O)C[C@H]5C(=O)N[C@@H](C)c5ccc(-c6scnc6C)cc5)C(C)(C)C)nn4)C[C@H](NC(=O)c4cc5cc(C(=O)P(=O)(O)O)ccc5[nH]4)C(=O)N32)cc1 [Compound 11]
result: 10 to 100 nM

# evaluate next
Query the reported IC50 for SU-DHL-1 cells; item: Cc1ncsc1-c1ccc([C@H](C)NC(=O)[C@@H]2C[C@@H](O)CN2C(=O)[C@@H](n2cc(CCCc3cccc(OC[C@H](CCC(N)=O)NC(=O)[C@@H]4CC[C@@H]5CCN(C(=O)C6CCN(C)CC6)C[C@H](NC(=O)c6cc7cc(C(=O)P(=O)(O)O)ccc7[nH]6)C(=O)N54)c3Cl)nn2)C(C)(C)C)cc1 [Compound 32]
10 to 100 nM

Where do these numbers come from? They come from patent US20260226086A1.
